Source listed as the supplement of paper PMC9112550.

# Test system: Escherichia coli TOP10
# experimentSummary: shrunken log2 fold change of peptide-encoding DNA abundance (4.5 h post-induction vs induction); higher = less antimicrobial activity (less host growth inhibition)
# measurementConditions: time post-induction: 4.5 h; library: site-saturation at positions 5, 18, 19, 20
measuredMetric: shrunken log2 fold change

>>> reported("RRIRKRPPRLPRPRPRPAECPRP")
0.33
>>> reported("RRIRKRPPRLPRPRPRPICAPRP")
0.363
>>> reported("RRIRHRPPRLPRPRPRPPFQPRP")
0.0923

###

# System: Escherichia coli TOP10
# experimentSummary: shrunken log2 fold change of peptide-encoding DNA abundance (4.5 h post-induction vs induction); higher = less antimicrobial activity (less host growth inhibition)
# measurementConditions: time post-induction: 4.5 h; library: site-saturation at positions 5, 18, 19, 20
If the reported shrunken log2 fold change equals or exceeds -0.03, assign y. If not, assign n.

>>> classlabel("RRIRARPPRLPRPRPRPITLPRP")
"n"
>>> classlabel("RRIRKRPPRLPRPRPRPGDHPRP")
"y"
>>> classlabel("RRIRVRPPRLPRPRPRPQWIPRP")
"n"
>>> classlabel("RRIRCRPPRLPRPRPRPCRMPRP")
"n"
>>> classlabel("RRIRKRPPRLPRPRPRPRGAPRP")
"y"
>>> classlabel("RRIRKRPPRLPRPRPRPVSDPRP")
"y"
>>> classlabel("RRIRVRPPRLPRPRPRPESRPRP")
"y"
>>> classlabel("RRIRHRPPRLPRPRPRPCKHPRP")
"n"
>>> classlabel("RRIRNRPPRLPRPRPRPKNSPRP")
"n"
>>> classlabel("RRIRTRPPRLPRPRPRPSKGPRP")
"n"
>>> classlabel("RRIRERPPRLPRPRPRPPEYPRP")
"y"
>>> classlabel("RRIRVRPPRLPRPRPRPWKMPRP")
"n"
>>> classlabel("RRIRSRPPRLPRPRPRPKDRPRP")
"y"
>>> classlabel("RRIRTRPPRLPRPRPRPAHFPRP")
"y"
>>> classlabel("RRIRKRPPRLPRPRPRPRIKPRP")
"y"
>>> classlabel("RRIRYRPPRLPRPRPRPQWAPRP")
"y"
>>> classlabel("RRIRWRPPRLPRPRPRPVSCPRP")
"y"
>>> classlabel("RRIRGRPPRLPRPRPRPTPNPRP")
"y"
>>> classlabel("RRIRQRPPRLPRPRPRPTTTPRP")
"n"
>>> classlabel("RRIRQRPPRLPRPRPRPFRPPRP")
"n"
>>> classlabel("RRIRRRPPRLPRPRPRPFCIPRP")
"n"
>>> classlabel("RRIRQRPPRLPRPRPRPLNEPRP")
"n"
>>> classlabel("RRIRIRPPRLPRPRPRPHQNPRP")
"n"
>>> classlabel("RRIRFRPPRLPRPRPRPCECPRP")
"n"
>>> classlabel("RRIRKRPPRLPRPRPRPGDKPRP")
"y"
>>> classlabel("RRIRTRPPRLPRPRPRPCFQPRP")
"n"
>>> classlabel("RRIRPRPPRLPRPRPRPMLTPRP")
"n"

###

# Tested on: Escherichia coli TOP10;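 further: peptides expressed intracellularly from a pBAD plasmid library in pooled LB shake-flask culture, induced with 0.3% L-arabinose, DNA abundance read by NGS, three biological replicates, DESeq2 with apeglm shrinkage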
# experimentSummary: shrunken log2 fold change of peptide-encoding DNA abundance (4.5 h post-induction vs induction); higher = less antimicrobial activity (less host growth inhibition)
# measurementConditions: time post-induction: 4.5 h; library: site-saturation at positions 5, 18, 19, 20
measuredMetric: shrunken log2 fold change

>>> reported("RRIRWRPPRLPRPRPRPKIHPRP")
-0.23
>>> reported("RRIRARPPRLPRPRPRPRLVPRP")
0.512
>>> reported("RRIRPRPPRLPRPRPRPMFTPRP")
-0.178
>>> reported("RRIRVRPPRLPRPRPRPILFPRP")
-0.395
>>> reported("RRIRHRPPRLPRPRPRPRFCPRP")
0.0432
>>> reported("RRIRMRPPRLPRPRPRPYFKPRP")
-0.647
>>> reported("RRIRGRPPRLPRPRPRPFWTPRP")
0.0497
